# Experimental system: Aβ40 (Homo sapiens, UniProt P05067)
# Construct: Compounds Showing Activity Observed in a ThT Functional Aβ 1-40 Aggregation Assay
# Sequence (P05067 672-711 limits assumed): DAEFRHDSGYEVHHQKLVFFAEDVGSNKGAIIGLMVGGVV
# Experiment summary: ThT functional Aβ 1-40 aggregation assay
# Assay type: biochemical
# Condition context: 20 μM Aβ, 20 mM Tris pH 7.4, 150 mM NaCl, 1% DMSO, 37° C.
Outcome measure: IC50 (µM)

Please review the following examples before continuing.
Compound: COC(=O)c1ccc(N2CCN(C(=O)c3ccccc3)CC2)cc1NCc1ccccc1
Experimental system: Aβ40 (Homo sapiens, UniProt P05067)
Uom: µM
IC50: 174
--
Compound: O=C(c1ccccc1)N1CCN(c2ccc(NCCO)c(Nc3ccccc3)c2)CC1
Experimental system: Aβ40 (Homo sapiens, UniProt P05067)
Uom: µM
IC50: 90
--
Compound: O=C(O)C1CCCN(c2ccc([N+](=O)[O-])c(NCc3ccccc3)c2)C1 (stereo not shown)
Experimental system: Aβ40 (Homo sapiens, UniProt P05067)
Uom: µM
IC50: 21.7

I. O=C(c1ccccc1)N1CCN(c2ccc(NCCN3CCOCC3)c(Nc3ccccc3)c2)CC1
II. O=C(O)c1cccc(-c2ccc([N+](=O)[O-])c(NCc3ccccc3)c2)c1 [drawing 139]
III. O=C(O)c1ccc(N2CCN(C(=O)c3ccccc3)CC2)cc1NCc1ccccc1
IV. CN1CCN(c2ccc([N+](=O)[O-])c(NCc3ccccc3)c2)CC1 [drawing 103]
Incoming: Order the records by IC50, with each subsequent value no larger than the one before. Returns: the labels listed in the requested order.
Outgoing: III, I, IV, II
(III: 189 µM, I: 54.4 µM, IV: 9 µM, II: 1.47 µM)

----------
# Experimental system: Aβ40 (Homo sapiens)
# Construct: Compounds Showing Activity Observed in a ThT Functional Aβ 1-40 Aggregation Assay
# Experiment summary: ThT functional Aβ 1-40 aggregation assay
# Type: biochemical
# Condition context: 20 μM Aβ, 20 mM Tris pH 7.4, 150 mM NaCl, 1% DMSO, 37° C.
Outcome measure: IC50 (µM)

Please review the following examples before continuing.
Compound: O=C(Nc1ccccc1)c1ccc(-c2ccc([N+](=O)[O-])c(NCc3ccccc3)c2)cc1
Experimental system: Aβ40 (Homo sapiens)
Outcome measure: IC50
Uom: µM
Recorded value: 217

Compound: CC(=O)N1CCN(c2ccc([N+](=O)[O-])c(NCc3ccccc3)c2)CC1
Experimental system: Aβ40 (Homo sapiens)
Outcome measure: IC50
Uom: µM
Recorded value: 25.8

a. CN(c1ccccc1)c1cc(N2CCN(C(=O)c3ccccc3)CC2)ccc1N
b. Nc1ccc(N2CCN(C(=O)c3ccccc3)CC2)cc1N(Cc1ccccc1)c1ccccc1
Incoming: Please tell me which of the two, a or b , has the higher reported IC50 value. Pick one; state its label.
Outgoing: b
(b: 107 µM, a: 15.5 µM)

----------
# Experimental system: Aβ40 (Homo sapiens, UniProt P05067)
# Construct: Compounds Showing Activity Observed in a ThT Functional Aβ 1-40 Aggregation Assay
# Experiment summary: ThT functional Aβ 1-40 aggregation assay
# Type: biochemical
# Condition context: 20 μM Aβ, 20 mM Tris pH 7.4, 150 mM NaCl, 1% DMSO, 37° C.
Outcome measure: IC50

Incoming: State the recorded IC50 for this entry: O=[N+]([O-])c1ccc(Br)cc1NCc1ccccc1
Outgoing: 20 to 50 µM

Incoming: State the recorded IC50 for this entry: O=[N+]([O-])c1ccc(N2CCN(Cc3ccccc3)CC2)cc1Nc1ccccc1
Outgoing: > 50 µM

Incoming: State the recorded IC50 for this entry: CCOC(=O)C1CCN(c2ccc([N+](=O)[O-])cc2C(=O)c2ccc(Cl)cc2)CC1
Outgoing: > 20 µM

Incoming: State the recorded IC50 for this entry: O=C(c1ccccc1)N1CCN(c2ccc([N+](=O)[O-])c(Oc3ccccc3)c2)CC1
Outgoing: > 50 µM
